This collection of values is drawn from ChEMBL document CHEMBL1201862.

System: UACC-257
Experiment notes: NCI tumour cell line growth inhibition, 48 h
Active and inactive are the calls of the source. Rule as the data show it: active = GI50 up to about 1.1 µM and inactive = higher.
Outcome codes: active, inactive

| Compound | Experimental target | Assigned class |
| --- | --- | --- |
| O=[N+]([O-])c1ccc2nc3ccscc-3c2c1 | UACC-257 | inactive |
| NC(CCc1nc(-c2ccc(Cl)cc2)cs1)C(=O)O (configuration not stated) | UACC-257 | inactive |
| Cn1ccnc1Sc1ccc(/C=N/NC(=O)c2ccccc2O)cc1[N+](=O)[O-] | UACC-257 | inactive |
| CCc1n[nH]c(=O)n1NC(=O)CCCC(=O)O | UACC-257 | inactive |
| Cc1cccc2c(N)c3cccc(C(=O)NCC[N+](C)(C)Cc4ccc([N+](=O)[O-])s4)c3nc12 | UACC-257 | inactive |
| CC(C)N(CCCNc1c2ccccc2nc2cccc([N+](=O)[O-])c12)C(C)C | UACC-257 | active |
| CCOC(=O)c1c2c(n(Cc3ccccc3)c1C)C(=O)C(=O)c1ccccc1-2 | UACC-257 | active |
| Clc1c(Cl)c(Cl)c2nn(C3CCCO3)nc2c1Cl (configuration not stated) | UACC-257 | inactive |
| COc1ccccc1NC(=O)C(CC(C(=O)Nc1ccccc1OC)/C(C)=N/Nc1ccc([N+](=O)[O-])cc1[N+](=O)[O-])/C(C)=N/Nc1ccc([N+](=O)[O-])cc1[N+](=O)[O-] (configuration not stated) | UACC-257 | inactive |
| CC(C)(C)OC(=O)NCCCCC1NC(=O)[C@@H]2Cc3c([nH]c4ccccc34)C(c3ccccc3)N2C1=O (some centres not stated) | UACC-257 | inactive |
| CC(=O)[C@]1(O)Cc2c(O)c3c(c(O)c2[C@@H](OC2CC(N)C(O)C(C)O2)C1)C(=O)c1c(OCc2ccccc2)cccc1C3=O (some centres not stated) | UACC-257 | inactive |
| CCOC(=O)C(=O)Nc1c(C)cccc1CC | UACC-257 | inactive |
| CC1=NC2=Nc3nc(C)cc[n+]3CN2C=C1 | UACC-257 | inactive |
| NC1(C(=O)O)CCC(C(=O)O)CC1 (configuration not stated) | UACC-257 | inactive |
| Nc1nc(Cl)c(CO)c(NCC2(CO)CCC2)n1 | UACC-257 | inactive |
| OCN(CO)c1ccc2c(c1)Cc1cc(F)ccc1-2 | UACC-257 | inactive |
| COc1ccc(OC)c2[nH]c(Sc3c([N+](=O)[O-])ncn3C)nc12 | UACC-257 | inactive |
| CN1C(=O)C(O)CC1c1ccc(C(F)(F)F)cc1 (configuration not stated) | UACC-257 | inactive |
| CC(C)(C)C1(c2ccc(C3(c4ccccc4)Oc4ccccc4S3)[nH]2)Oc2ccccc2S1 (configuration not stated) | UACC-257 | inactive |
| CO[C@]12CC(=O)C3(C(C[C@H]4CC5CCC6=CC(=O)CC[C@]6(OC(C)=O)C5C[C@@]43C)C1)C1C[C@H]3[C@@H]4CCC5=CC(=O)CC[C@]5(OC(C)=O)[C@H]4CC[C@]3(C)C12 (some centres not stated) | UACC-257 | inactive |
| Oc1ccc(-c2nc(-c3cccnc3)c(-c3ccc(Cl)cc3)[nH]2)cc1O | UACC-257 | inactive |
| COCOc1ccc(C(=O)Oc2cccc3c2OC(C)(C)O3)c(OCOC)c1 | UACC-257 | inactive |
| Cc1cccc(C)c1NC(=O)CCCC(=O)CC(=O)/C=C/c1ccccc1 | UACC-257 | inactive |
| COCCOCCOCCC(=O)NC1CC2CCC1(C)C2(C)C (configuration not stated) | UACC-257 | inactive |
| CC[N+]1(C)CCC(O)(/C=C/c2ccc(Cl)cc2)C(C(=O)/C=C/c2ccc(Cl)cc2)C1 (configuration not stated) | UACC-257 | inactive |
| O=Cc1ccc2c(c1)CC1(C2)Cc2ccc(C=O)cc2C1 | UACC-257 | inactive |
| O=Cc1ccc(-c2cc(C=O)c(-c3cccs3)[nH]2)s1 | UACC-257 | inactive |
| Cc1ccc(Oc2cc(C)ccc2P(=O)(O)O)cc1 | UACC-257 | inactive |
| Cn1c(=O)c2nc(CCS)[nH]c2n(C)c1=O | UACC-257 | inactive |
| Oc1ccc2ccccc2c1-c1c(Nc2ccccc2)ccc2ccccc12 | UACC-257 | inactive |
| Cc1cc(C)c(C#N)c(SC(=S)NC(=O)c2ccccc2)n1 | UACC-257 | inactive |
| CCc1oc2ccc(OC)c3c2c1C=CC=C3 | UACC-257 | inactive |
| CC1=C[P+](Cc2ccccc2)(c2ccccc2)CC1 (configuration not stated) | UACC-257 | inactive |
| COC(=O)/C=C\C(C#N)(C#N)/N=C/c1ccc(C)cc1 | UACC-257 | inactive |
| O=C(O)c1ccc(Nc2nc3ccccc3nc2C(=O)O)cc1 | UACC-257 | inactive |
| CC(Oc1ccc(Oc2cnc3ccc(Cl)cc3n2)cc1)C(=O)O (configuration not stated) | UACC-257 | inactive |
| COC(=O)C1=C(OC(=O)c2ccccc2)C(C(=O)OC)[C@@]2(O)[C@@H](C(=O)OC)[C@H](C)C[C@@H]1[C@@H]2C(=O)OC (some centres not stated) | UACC-257 | inactive |
| COc1ccc(NC(=O)C(C)Oc2ccc(OCC3CCCCC3)cc2)cc1 (configuration not stated) | UACC-257 | inactive |
| Cc1cccc(Cl)c1NC(N)=S | UACC-257 | inactive |
| CCN(C(=N)C#N)c1ccccc1 | UACC-257 | inactive |
| O=C(Nc1nc2ccc([N+](=O)[O-])cc2s1)c1cc([N+](=O)[O-])ccc1Cl | UACC-257 | inactive |
| c1ccc(C2=NOC3COc4ccccc4OCC23)cc1 (configuration not stated) | UACC-257 | inactive |
